- System: SF-268 CNS
- PROTOCOL: NCI-60 one-dose screen, 48 h (100 = growth as untreated, 0 = no growth, -100 = all killed)
- RECORDED CONDITIONS: 10 µM unless noted
The panel holds about 83,000 compounds, 20% with a hit somewhere; the sample as a whole holds those more often.
RECORDED ENDPOINT: growth (%)
Provide only the numeric value, understood in %.

| MOLECULE | UOM | RECORDED NUMBER |
| --- | --- | --- |
| CC(C)(O)CC(=O)NCCn1ccc2ncnc(Nc3ccc(Oc4cccc(C(F)(F)F)c4)c(Cl)c3)c21 | % | 29.3 |
| O=C1CC(c2ccc(Cl)cc2)c2ncn(-c3cccc(Cl)c3)c2N1 (configuration not stated) | % | 58.2 |
| CNC(=O)c1cc(Oc2cccc3nc(Nc4ccc(Oc5ccccc5)cc4)ccc23)ccn1 | % | 75.4 |
| COC(=O)[C@]12CC[C@@H](C)[C@H](C)[C@@H]1C1=CC[C@@H]3[C@@]4(C)C[C@@H](OC(=O)/C=C/c5ccccc5)[C@H](O)[C@@](C)(CO)[C@@H]4[C@H](O)C[C@@]3(C)[C@]1(C)CC2 | % | 17.4 |
| COC(=O)N[C@@H](C)CNc1nccc(-c2cn(C(C)C)nc2-c2cc(Cl)cc(NS(C)(=O)=O)c2F)n1 | % | 82.2 |
| COC(=O)[C@]12CC[C@@H](C)[C@H](C)[C@@H]1C1=CC[C@@H]3[C@@]4(C)C(c5cnco5)=C[C@@](C)(CO)C4=CC[C@@]3(C)[C@]1(C)CC2 | % | 63 |

For the molecule COc1cc(NCCCN)c2ncccc2c1 , what growth is on record?
90.7

Check C[C@@H](Oc1cc(-n2cnc3ccc(CN4CCN(C)CC4)cc32)sc1C(N)=O)c1ccccc1C(F)(F)F too.
31.6

Check CS(=O)(=O)CCNCc1ccc(-c2ccc3ncnc(Nc4ccc(OCc5cccc(F)c5)c(Cl)c4)c3c2)o1 too.
8.76

Check C[N+](C)(CCOC(c1ccccc1)c1ccccc1)CC(=O)OCc1ccccc1 too.
106

Check Clc1ccc(Nc2nccc(Nc3ccc4[nH]ncc4c3)n2)cc1 too.
60.4

Check C=CC(=O)N(C)[C@H]1C[C@H]2OC(C)(C1OC)n1c3ccccc3c3c4c(c5c6ccccc6n2c5c31)C(=O)NC4 (some centres not stated) too.
6.45

Check C=CCCCC(=O)CCC(=O)OCC1O[C@@H](O[C@@H]2C(O)[C@@H](OC(C)=O)C(C)O[C@H]2O[C@H](CC=C)CCCCC)C(O)[C@@H](OC(=O)/C(C)=C/C)[C@@H]1OC(=O)/C=C/c1ccccc1 (some centres not stated) too.
29.2

Check Cc1[nH]n(C(N)=S)c(=O)c1N=Nc1ccc(S(=O)(=O)Nc2ccncn2)cc1 too.
85

Check O=C(Cc1ccccc1)Nc1nnc(NC2CCN(c3nnc(NC(=O)Cc4ccccc4)s3)CC2)s1 too.
91.1

Check Cn1ncc(Cl)c1-c1cc(C(=O)N[C@H](CN)Cc2cccc(F)c2)sc1Cl too.
27

Check CCN(CCO)CCCOc1ccc2c(Nc3cc(CC(=O)Nc4cccc(F)c4)[nH]n3)ncnc2c1 too.
56.2
